Target System: Ephrin type-B receptor 3 (Homo sapiens) (UniProt P54753)
Sequence (P54753 whole entry): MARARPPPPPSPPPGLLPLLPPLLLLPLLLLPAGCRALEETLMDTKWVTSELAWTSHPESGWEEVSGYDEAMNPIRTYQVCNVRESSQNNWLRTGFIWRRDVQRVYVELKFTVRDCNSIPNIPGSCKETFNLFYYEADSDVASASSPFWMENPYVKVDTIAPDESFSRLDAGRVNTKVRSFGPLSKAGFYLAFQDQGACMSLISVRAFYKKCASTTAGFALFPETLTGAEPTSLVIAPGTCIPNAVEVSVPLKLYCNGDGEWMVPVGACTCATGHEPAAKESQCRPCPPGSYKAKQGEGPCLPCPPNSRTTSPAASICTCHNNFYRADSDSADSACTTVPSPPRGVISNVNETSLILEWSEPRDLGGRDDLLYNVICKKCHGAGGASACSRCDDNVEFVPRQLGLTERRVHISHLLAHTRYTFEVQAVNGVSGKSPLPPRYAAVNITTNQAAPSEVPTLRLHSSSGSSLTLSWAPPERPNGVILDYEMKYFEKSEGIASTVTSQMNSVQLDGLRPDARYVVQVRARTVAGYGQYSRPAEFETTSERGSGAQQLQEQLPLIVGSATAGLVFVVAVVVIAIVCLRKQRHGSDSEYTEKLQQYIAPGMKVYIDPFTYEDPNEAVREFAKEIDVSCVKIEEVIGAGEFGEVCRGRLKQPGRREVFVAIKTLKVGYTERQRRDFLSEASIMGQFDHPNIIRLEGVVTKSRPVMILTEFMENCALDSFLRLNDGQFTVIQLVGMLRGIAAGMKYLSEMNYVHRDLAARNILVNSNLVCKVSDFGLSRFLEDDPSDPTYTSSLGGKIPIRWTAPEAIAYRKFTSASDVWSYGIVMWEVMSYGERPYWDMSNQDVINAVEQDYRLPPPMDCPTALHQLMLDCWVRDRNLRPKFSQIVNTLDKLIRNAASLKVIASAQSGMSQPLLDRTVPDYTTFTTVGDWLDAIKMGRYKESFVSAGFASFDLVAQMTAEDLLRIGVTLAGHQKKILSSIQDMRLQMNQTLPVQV
Reported Conditions: at 1 µM
Description: Millipore: Percentage of residual kinase activity of EPHB3 at 1uM relative to control. Control inhibitor: PP2 at 30.0uM. Buffer: 8 mM MOPS pH 7.0, 0.2 mM EDTA, 10 mM MnCl2
Hi there, I'd appreciate the recorded residual activity for every entry that follows.
Just the number in %, nothing appended.

The value of residual activity measured for the molecule CCN(CC)C(=O)c1ccc(Nc2nc(OCC3CCCCC3)c3nc[nH]c3n2)cc1 turned out to be 102

The value of residual activity measured for the molecule O=C1NC(=O)/C(=C\c2ccc3nccnc3c2)S1 turned out to be 113

The value of residual activity measured for the molecule COc1cc2ncnc(Nc3ccc(Oc4ccccc4)cc3)c2cc1OC turned out to be 120

The value of residual activity measured for the molecule COc1cc2ncc(-c3ccccc3)nc2cc1OC turned out to be 132

The value of residual activity measured for the molecule Cc1nc(-c2ccccc2)c(-c2ccncc2)o1 turned out to be 126

The value of residual activity measured for the molecule Nc1cccc(-c2cc3c(Oc4cccc(O)c4)ncnc3[nH]2)c1 turned out to be 105

The value of residual activity measured for the molecule O=C1Nc2ccccc2/C1=C1/Nc2ccccc2/C1=N\OCCC(O)CO (stereo unspecified) turned out to be 117

The value of residual activity measured for the molecule O=C1NC(=O)c2cc(Nc3ccc(F)cc3)c(Nc3ccc(F)cc3)cc21 turned out to be 100

The value of residual activity measured for the molecule Cc1ccc(S(=O)(=O)/C=C/C#N)cc1 turned out to be 118

The value of residual activity measured for the molecule Cc1cc2ncc(-c3ccccc3)nc2cc1C turned out to be 106

The value of residual activity measured for the molecule O=C(Nc1cccc(Nc2cc(Nc3cccc(C(F)(F)F)c3)ncn2)c1)C1CC1 turned out to be 90

The value of residual activity measured for the molecule O=Nc1c(-c2c(O)[nH]c3ccccc23)[nH]c2ccccc12 turned out to be 105

The value of residual activity measured for the molecule c1ccc2c(-c3ccncc3)c[nH]c2c1 turned out to be 106

The value of residual activity measured for the molecule O=C1c2ccccc2-[n+]2ccc3c([nH]c4ccccc43)c21 turned out to be 100

The value of residual activity measured for the molecule Cn1cnc2cc3c(Nc4cccc(Br)c4)ncnc3cc21 turned out to be 110

The value of residual activity measured for the molecule O=C(O)c1ccc2c3c1cccc3c(=O)n1c3ccccc3nc21 turned out to be 98

The value of residual activity measured for the molecule O=C(Nc1cccc(Nc2nccc(Nc3cccc(C(F)(F)F)c3)n2)c1)C1CC1 turned out to be 106

The value of residual activity measured for the molecule NC(=O)c1ccc2[nH]c(-c3ccc(Oc4ccc(Cl)cc4)cc3)nc2c1 turned out to be 102

The value of residual activity measured for the molecule CNc1cc2c(Nc3cccc(Br)c3)ncnc2cn1 turned out to be 95

The value of residual activity measured for the molecule Oc1ccc(-c2nc(-c3ccc(F)cc3)c(-c3ccncc3)[nH]2)cc1 turned out to be 95

The value of residual activity measured for the molecule c1ccc(-c2n[nH]cc2-c2ccnc3ccccc23)nc1 turned out to be 102
